Numbers sourced from patent US4999424A.

Target: E. coli GAR TFase (Escherichia coli, UniProt P08179)
Construct: made in house; host or cells: E. coli TX393 with multicopy plasmid pJS85, or E. coli TX635 with lambda pL plasmid pJS119 or pJS167
Experiment: Fluorescence titration, dissociation constant for E. coli GAR TFase
Assay type: binding
Settings: average from three wavelengths (396, 400, 405 nm); standard error about 50 pM; 11 nM inhibitor, excitation 275 nm; read-out: thermodynamic dissociation constant, KD
Description: The thermodynamic dissociation constant, KD, for the E.β-TGDDF complex was measured by following the enhancement of the inhibitor's 395 nm fluorescence (excitation at 275 nm) upon binding to GAR TFase. A concentrated E. coli GAR TFase solution was added to an 11 nM solution of purified β-TGDDF; for each addition, the fluorescence at three different wavelengths (396, 400, and 405 nm) was measured. […]

>  <Mol>
Nc1nc2ccc(CN(C(=O)CSCC(=O)N[C@@H]3O[C@H](COP(=O)(O)O)[C@@H](O)[C@H]3O)c3ccc(C(=O)N[C@@H](CCC(=O)O)C(=O)O)cc3)cc2c(=O)[nH]1

>  <Kd / nM>
0.25

$$$$

----------
Molecular target: E. coli GAR TFase (Escherichia coli, UniProt P08179)
Construct: made in house; host or cells: E. coli TX393 with multicopy plasmid pJS85, or E. coli TX635 with lambda pL plasmid pJS119 or pJS167
Sequence (P08179 1-212): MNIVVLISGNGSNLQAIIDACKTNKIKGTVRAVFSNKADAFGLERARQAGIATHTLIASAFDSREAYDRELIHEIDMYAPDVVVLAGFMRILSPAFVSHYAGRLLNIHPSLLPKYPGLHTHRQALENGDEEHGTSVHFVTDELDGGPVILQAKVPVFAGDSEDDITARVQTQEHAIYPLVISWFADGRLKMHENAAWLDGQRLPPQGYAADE
Assay: E. coli GAR TFase inhibition/activity assay (5,8-dideazafolate absorbance at 295 nm)
Assay type: biochemical
Settings: Table I, E. coli GAR TFase; read-out: KI

>  <Molecule>
Nc1nc2ccc(CN(C(=O)CSCC(=O)NC3O[C@H](CO)[C@@H](O)[C@H]3O)c3ccc(C(=O)N[C@@H](CCC(=O)O)C(=O)O)cc3)cc2c(=O)[nH]1 (stereo partly shown)

>  <Ki>
1700 nM

$$$$

----------
molecular target: E. coli GAR TFase (Escherichia coli); construct: made in house; host or cells: E. coli TX393 with multicopy plasmid pJS85, or E. coli TX635 with lambda pL plasmid pJS119 or pJS167; assay: Fluorescence titration, dissociation constant for E. coli GAR TFase; assay type: binding; settings: alpha-anomer; read-out: KD

>  <Compound>
Nc1nc2ccc(CN(C(=O)CSCC(=O)N[C@H]3O[C@H](COP(=O)(O)O)[C@@H](O)[C@H]3O)c3ccc(C(=O)N[C@@H](CCC(=O)O)C(=O)O)cc3)cc2c(=O)[nH]1 [alpha-TGDDF]

>  <Subject of test>
E. coli GAR TFase (Escherichia coli)

>  <Kd (nM)>
5.8

$$$$

----------
Target: E. coli GAR TFase (Escherichia coli, UniProt P08179)
Construct: made in house; host or cells: E. coli TX393 with multicopy plasmid pJS85, or E. coli TX635 with lambda pL plasmid pJS119 or pJS167
Sequence (P08179 1-212): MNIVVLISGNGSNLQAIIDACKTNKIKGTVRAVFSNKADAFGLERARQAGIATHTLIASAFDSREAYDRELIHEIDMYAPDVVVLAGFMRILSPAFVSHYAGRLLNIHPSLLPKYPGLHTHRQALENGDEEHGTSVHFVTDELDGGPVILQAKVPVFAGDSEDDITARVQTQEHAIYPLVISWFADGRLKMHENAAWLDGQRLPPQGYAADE
Test: E. coli GAR TFase inhibition/activity assay (5,8-dideazafolate absorbance at 295 nm)
Format: biochemical
Property name: Ki (µM)

>  <Compound>
Nc1nc2ccc(CNc3ccc(C(=O)N[C@@H](CCC(=O)O)C(=O)O)cc3)cc2c(=O)[nH]1 [DDF, 5,8-dideazafolate, reference compound]

>  <Measurement>
28.1

$$$$
